- assay.method.text: recombinant barcode read abundance after kanamycin selection (control-corrected) (log10(CPM+1)); higher = more efficient recombination; sequences stand for … in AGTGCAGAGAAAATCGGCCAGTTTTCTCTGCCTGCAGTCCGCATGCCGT…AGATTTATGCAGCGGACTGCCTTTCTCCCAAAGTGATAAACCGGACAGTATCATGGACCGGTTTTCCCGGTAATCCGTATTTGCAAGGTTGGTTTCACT; site = the 11-nt target
endpoint.label: recombinant barcode read abundance (log10)
Answers are plain numbers.

Worked examples, 10 sequences total:
# sequence.input, meas.value
records = [
    ("AGAGGTTCTTGGGTTCTAACCTGTTGCCT (site AGAGGTTCTAG)", 1.58),
    ("CCTACTCCTTGGGTTCTAACCTGTTGCCT (site CCTACTCCTAG)", 0.281),
    ("ACTAGCTCTTGGGTTCTAACCTGTTGCTA (site ACTAGGTCTTA)", 0.0229),
    ("CGTTCGACTTGGGTTCTAACCTGTTGCCT (site CGTTCCACTAG)", 0),
    ("GCTCATTCTTGGGTTCTAACCTGTTGCCT (site GCTCATGCTAG)", 0),
    ("CGTAAGTCTTGGGTTCTAACCTGTTGCCT (site CGTAAGTCTAG)", 1.11),
    ("AGATATACTTGGGTTCTAACCTGTTGCTT (site CACCTGTCTCC)", 0.0796),
    ("GAGCCATCTTGGGTTCTAACCTGTTGCTT (site GAGCCATCTAA)", 0.524),
    ("TCACGTCCTTGGGTTCTAACCTGTTGCTT (site TCACGTCCTAG)", 0.262),
    ("CTACTAACTTGGGTTCTAACCTGTTGCTT (site CTACTAACTAC)", 0.0509),
]

Hello, I would appreciate it if you could give recombinant barcode read abundance (log10) for each entry below.
1. GACAGCCCTTGGGTTCTAACCTGTTGCTG (site GTCAGCCCTCA)
2. GCACATTCTTGGGTTCTAACCTGTTGCCT (site GCACATTCTAG)
3. AGATCTCCTTGGGTTCTAACCTGTTGCGT (site AGATCTCCTAC)

Ans.
0.0582
1.17
0.777

I have 7 sequences here; please give me recombinant barcode read abundance (log10) for each one.
1. GTAACTACTTGGGTTCTAACCTGTTGCGG (site GTAACTACTCC)
2. ACCCTATCTTGGGTTCTAACCTGTTGCTT (site ACTCTGTCTAA)
3. CAAATGTCTTGGGTTCTAACCTGTTGCCT (site CAAATGTCTAG)
4. TTGAGGACTTGGGTTCTAACCTGTTGCCA (site TTGAGGACTAC)
5. AGGTCACCTTGGGTTCTAACCTGTTGCTT (site AGGTCACCTAC)
6. GATAGGCCTTGGGTTCTAACCTGTTGCTT (site AATTGGCCTAA)
7. CAGGCGCCTTGGGTTCTAACCTGTTGCCT (site CAGGCGACTAG)

Ans.
1. 2.1
2. 0.114
3. 1.1
4. 1.14
5. 0.0772
6. 0.0314
7. 0.335

Qu. Record request: recombinant barcode read abundance (log10) value, item CAGAGATCTTGGGTTCTAACCTGTTGCTT (site CACAGATCTAA)
Ans. 0.137

====

What recombinant UMI read abundance (log10) was measured for each of the following?
- assay.method.text: recombinant UMI read abundance after kanamycin selection (control-corrected) (log10(CPM+1)); higher = more efficient recombination; extreme values may be limits of the assay; sequences stand for … in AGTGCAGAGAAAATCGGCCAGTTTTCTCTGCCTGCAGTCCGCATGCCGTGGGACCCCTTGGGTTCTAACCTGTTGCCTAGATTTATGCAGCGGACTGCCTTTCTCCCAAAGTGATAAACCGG…AGGTTGGTTTCACT; site = the 11-nt donor
Answers are plain numbers.

Here's what some known entries look like.
# sequence.input, endpoint.label, meas.value
rows = [
    ("GGGACGTCATGGACCGGTTTTCCCGGTAATCCGTATTTGTT (site GGAACGTCTAA)", "recombinant UMI read abundance (log10)", 0.547),
    ("AGCCTCTCATGGACCGGTTTTCCCGGTAATCCGTATTTGAC (site AGCCTATCTGT)", "recombinant UMI read abundance (log10)", 0),
    ("GCAGATTCATGGACCGGTTTTCCCGGTAATCCGTATTTGTT (site GCAGATTCTAA)", "recombinant UMI read abundance (log10)", 2.97),
    ("GACTGGACATGGACCGGTTTTCCCGGTAATCCGTATTTGAC (site GATTGGACTGT)", "recombinant UMI read abundance (log10)", 0),
    ("ATAGAGCCATGGACCGGTTTTCCCGGTAATCCGTATTTGAA (site ATAGAGCCTTT)", "recombinant UMI read abundance (log10)", 0.525),
    ("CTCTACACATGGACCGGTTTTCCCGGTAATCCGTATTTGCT (site CTCTACGCTAG)", "recombinant UMI read abundance (log10)", 0.84),
    ("GTTAGAACATGGACCGGTTTTCCCGGTAATCCGTATTTGTC (site GTTAGAACTGA)", "recombinant UMI read abundance (log10)", 1.52),
    ("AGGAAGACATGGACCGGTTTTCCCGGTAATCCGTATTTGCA (site ATGAAGGCTTG)", "recombinant UMI read abundance (log10)", 0),
]

Provide recombinant UMI read abundance (log10) for all items below, preserving their order.
1. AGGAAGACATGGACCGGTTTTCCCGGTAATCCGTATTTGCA (site AGGAAGTCTCG)
2. AGTCGAGCATGGACCGGTTTTCCCGGTAATCCGTATTTGAG (site AGTCGAGCTCT)
3. GATGTAGCATGGACCGGTTTTCCCGGTAATCCGTATTTGCG (site GATGTAGCTCG)
4. AAAACTTCATGGACCGGTTTTCCCGGTAATCCGTATTTGTC (site AAAACTTCTGA)
5. CAATTCCCATGGACCGGTTTTCCCGGTAATCCGTATTTGTT (site CAATTCCCTAA)
6. TACTTCACATGGACCGGTTTTCCCGGTAATCCGTATTTGCT (site TACTTTACTAG)
7. GTTGTTCCATGGACCGGTTTTCCCGGTAATCCGTATTTGAT (site GTTGTTCCTAT)
8. AGGAAGACATGGACCGGTTTTCCCGGTAATCCGTATTTGAA (site AGGAAGACTTC)

Ans.
0
1.6
1.72
0
1.71
0
0.00518
0.592

# return recombinant UMI read abundance (log10) for each item in the list
1. TATGAGTCATGGACCGGTTTTCCCGGTAATCCGTATTTGCT (site TATGAGTCTAG)
2. CCCATCTCATGGACCGGTTTTCCCGGTAATCCGTATTTGGG (site CCCGTCTCTCC)

Ans.
2.74
0.00519

====

- assay.method.text: recombinant barcode read abundance after kanamycin selection (control-corrected) (log10(CPM+1)); higher = more efficient recombination; sequences stand for … in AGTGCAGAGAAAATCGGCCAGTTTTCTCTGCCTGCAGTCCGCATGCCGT…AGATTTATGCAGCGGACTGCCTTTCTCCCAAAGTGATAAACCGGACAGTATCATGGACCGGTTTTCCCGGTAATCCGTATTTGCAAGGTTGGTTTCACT; site = the 11-nt target
Kindly supply the reported recombinant barcode read abundance (log10) values for the records listed here.

Solved cases below.
# sequence.input, meas.value
records = [
    ("TAGCACACTTGGGTTCTAACCTGTTGCGG (site TAGCCCACTCC)", 0.112),
    ("CTTCGAGCTTGGGTTCTAACCTGTTGCCG (site CTTCGAGCTCC)", 0.0907),
]

Batch request: recombinant barcode read abundance (log10) for each of the following sequences.
1. GGGAACCCTTGGGTTCTAACCTGTTGCTC (site GGGAACCCTCA)
2. TAGCAATCTTGGGTTCTAACCTGTTGCTA (site TAGCAATCTTA)

Ans.
0.659
0.0837

I'm hoping you can list recombinant barcode read abundance (log10) for every sequence here, please.
1. TAAGTACCTTGGGTTCTAACCTGTTGCCT (site TAAGTACCTAG)
2. CCGTGTCCTTGGGTTCTAACCTGTTGCCG (site GCGTGTCCTTG)
3. TGTGTCCCTTGGGTTCTAACCTGTTGCCT (site TGTGTCCCTAG)

Ans.
1.88
0
1.14

====

- assay.method.text: recombinant UMI read abundance after kanamycin selection (control-corrected) (log10(CPM+1)); higher = more efficient recombination; extreme values may be limits of the assay; sequences stand for … in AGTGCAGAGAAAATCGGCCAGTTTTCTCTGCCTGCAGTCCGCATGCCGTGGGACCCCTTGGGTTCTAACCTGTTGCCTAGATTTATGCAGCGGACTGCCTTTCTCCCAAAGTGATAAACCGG…AGGTTGGTTTCACT; site = the 11-nt donor
endpoint.label: recombinant UMI read abundance (log10)
Answers are plain numbers.

Worked set:
# sequence.input, endpoint.label, meas.value
measured = [
    ("ACTGTATCATGGACCGGTTTTCCCGGTAATCCGTATTTGCC (site ACTGTATCTGG)", "recombinant UMI read abundance (log10)", 2.92),
    ("CGAGGAACATGGACCGGTTTTCCCGGTAATCCGTATTTGGG (site CGAGGAGCTCC)", "recombinant UMI read abundance (log10)", 0.376),
    ("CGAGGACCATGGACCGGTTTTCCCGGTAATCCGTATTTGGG (site CGAGTACCTCC)", "recombinant UMI read abundance (log10)", 0),
    ("GCCAAGCCATGGACCGGTTTTCCCGGTAATCCGTATTTGGG (site GCAAAGCCTCC)", "recombinant UMI read abundance (log10)", 0.00342),
    ("CTTTTGGCATGGACCGGTTTTCCCGGTAATCCGTATTTGCT (site CTTTTGGCTAG)", "recombinant UMI read abundance (log10)", 0),
]

Could you report recombinant UMI read abundance (log10) for every entry in the following list?
1. GAGAAAACATGGACCGGTTTTCCCGGTAATCCGTATTTGCT (site GCGAAAACTAG)
2. CAAGCGACATGGACCGGTTTTCCCGGTAATCCGTATTTGTG (site CAAGCGGCTCA)
3. GAGTATCCATGGACCGGTTTTCCCGGTAATCCGTATTTGCT (site GACTATCCTAG)
4. GTAAGAACATGGACCGGTTTTCCCGGTAATCCGTATTTGGC (site GTTAGAACTGC)

Ans.
0.0152
1.2
0.506
1.13

All values here come from the supplement of paper PMC11208160.
